Where do the numbers come from? From patent US20220017615A1.

Listed here: items and their measured OD450 nm.
Target: T1, His-tagged CD47 recombinant protein, CD47-His (human, UniProt Q08722 19-141, limits assumed)
T1 construct: it is not restated for CD47-His; also called human CD47-His protein; antigen CD47-His; not shown: His tag
Assay: ELISA on coated CD47-His; Ab 0.107 nM
# respond with the number and nothing more

binder="20H4G5 (antibody, V domains shown, Murine hybridoma antibody purified on protein G) VH: QVQLQQPGAELVRPGSSVRLSCVTSGYTFTSHWMHWVKQGPIKGLEWIGNIDPSDSETHYNQKFKDKATLTVDKSSSTAYMQLSRLTSDDSAVYYCARWRHLGIGAMDYWGQGTSVIVSS VL: DVQITQSPSYLAASPGETITINCRASKNISKFLAWYQAKPGKSNNLLIYSGSTLQSGIPSRFSGSGSGTDFTLTISRLEPEDFAMYYCQQHNEYPWTFGGGTKLEIK" result_number=2.61
binder="95E2D10 (antibody, V domains shown, Murine hybridoma antibody purified on protein G) VH: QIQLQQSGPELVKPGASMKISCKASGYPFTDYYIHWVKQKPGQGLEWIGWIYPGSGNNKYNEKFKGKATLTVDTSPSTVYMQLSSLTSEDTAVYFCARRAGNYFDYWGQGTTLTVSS VL: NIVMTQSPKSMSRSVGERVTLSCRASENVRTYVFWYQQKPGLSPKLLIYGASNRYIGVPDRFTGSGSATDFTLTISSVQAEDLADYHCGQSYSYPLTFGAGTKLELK" result_number=2.07
binder="54G8G6 (antibody, V domains shown, Murine hybridoma antibody purified on protein G) VH: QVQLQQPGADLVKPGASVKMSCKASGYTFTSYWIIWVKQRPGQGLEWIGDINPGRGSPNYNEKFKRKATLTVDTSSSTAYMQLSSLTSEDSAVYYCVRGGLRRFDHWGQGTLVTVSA VL: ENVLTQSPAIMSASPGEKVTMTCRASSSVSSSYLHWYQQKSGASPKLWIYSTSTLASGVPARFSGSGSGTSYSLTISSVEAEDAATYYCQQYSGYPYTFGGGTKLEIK" result_number=2.1

Okay, next one:
INPUT: Look up OD450 nm: 51E2F11 (antibody, V domains shown, Murine hybridoma antibody purified on protein G) VH: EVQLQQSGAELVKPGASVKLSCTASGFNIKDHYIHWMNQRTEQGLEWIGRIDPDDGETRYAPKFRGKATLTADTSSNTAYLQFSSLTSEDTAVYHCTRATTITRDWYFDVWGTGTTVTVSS VL: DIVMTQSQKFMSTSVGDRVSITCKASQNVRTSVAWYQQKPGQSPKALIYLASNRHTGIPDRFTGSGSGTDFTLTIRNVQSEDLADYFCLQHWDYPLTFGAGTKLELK
OUTPUT: 1.83
